Listing of entries alongside the reported CC50 at 48 h.
# procedure-summary: Cytotoxicity against BALB/c mouse T cell assessed as reduction in cell viability after 48 hrs by CCK8 assay
# Type: tissue-based, T cell line
# run-conditions: BALB/c mouse T cells
Quick reminder: number only, in nM, skip the unit.

Which CC50 at 48 h is reported for this compound? `CCOC(=O)[C@]1(C)CC[C@]2(C)CC[C@]3(C)C4=CC=C5C(=CC(=O)C(O)=C5C)[C@]4(C)CC[C@@]3(C)[C@@H]2C1` 1400

Another compound: `CC1=C(O)C(=O)C=C2C1=CC=C1[C@@]2(C)CC[C@@]2(C)[C@@H]3C[C@](C)(C(=O)OCc4cccc(C)c4)CC[C@]3(C)CC[C@]12C` 1900

Now consider `CC1=C(O)C(=O)C=C2C1=CC=C1[C@@]2(C)CC[C@@]2(C)[C@@H]3C[C@](C)(C(=O)NCc4cccc(C)c4)CC[C@]3(C)CC[C@]12C` and answer again. 1000

* * *

Recorded measurements of pIC50, one per entry
# procedure-summary: Antiproliferative activity against Con A-induced BALB/c mouse T cell after 48 hrs by CCK8 assay
# Type: functional, tissue-based, T cell line
pIC50: −log10 of the molar value.

C#CCOC(=O)[C@]1(C)CC[C@]2(C)CC[C@]3(C)C4=C[C@@H](c5c[nH]c6ccc(OC)cc56)c5c(cc(OC(C)=O)c(OC(C)=O)c5C)[C@]4(C)CC[C@@]3(C)[C@@H]2C1 | ≤ 5.00
CC1=C(O)C(=O)C=C2C1=CC=C1[C@@]2(C)CC[C@@]2(C)[C@@H]3C[C@](C)(C(=O)OCc4ccccc4Br)CC[C@]3(C)CC[C@]12C | 5.81

Query compound follows.
Quick check: pIC50 of `C#CCOC(=O)[C@]1(C)CC[C@]2(C)CC[C@]3(C)C4=C[C@@H](c5c[nH]c6ccc(Cl)cc56)c5c(cc(OC(C)=O)c(OC(C)=O)c5C)[C@]4(C)CC[C@@]3(C)[C@@H]2C1` ? ≤ 5.00

* * *

# procedure-summary: Cytotoxicity against BALB/c mouse T cell assessed as reduction in cell viability after 48 hrs by CCK8 assay
# Type: tissue-based, T cell line
# run-conditions: BALB/c mouse T cells
endpoint-name: CC50 at 48 h (nM)
// note: answer is a bare numeric in nM

COC(=O)[C@]1(C)CC[C@]2(C)CC[C@]3(C)C4=CC=C5C(=CC(=O)C(O)=C5C)[C@]4(C)CC[C@@]3(C)[C@@H]2C1 [PRISTIMERIN] | 2400

Suppose we examine the compound `CC1=C(O)C(=O)C=C2C1=CC=C1[C@@]2(C)CC[C@@]2(C)[C@@H]3C[C@](C)(C(=O)NC(C)C)CC[C@]3(C)CC[C@]12C` ; what CC50 at 48 h value has been reported? 800

Similarly, `CCCCNC(=O)[C@]1(C)CC[C@]2(C)CC[C@]3(C)C4=CC=C5C(=CC(=O)C(O)=C5C)[C@]4(C)CC[C@@]3(C)[C@@H]2C1` ? 1200

Another compound to look at: `CCCCOC(=O)[C@]1(C)CC[C@]2(C)CC[C@]3(C)C4=CC=C5C(=CC(=O)C(O)=C5C)[C@]4(C)CC[C@@]3(C)[C@@H]2C1` 900

# repeat for `CC1=C(O)C(=O)C=C2C1=CC=C1[C@@]2(C)CC[C@@]2(C)[C@@H]3C[C@](C)(C(=O)NCc4ccccc4C)CC[C@]3(C)CC[C@]12C` 1100

Note, next up: `CCCOC(=O)[C@]1(C)CC[C@]2(C)CC[C@]3(C)C4=CC=C5C(=CC(=O)C(O)=C5C)[C@]4(C)CC[C@@]3(C)[C@@H]2C1` 1200

Same again, this time with `C=CCOC(=O)[C@]1(C)CC[C@]2(C)CC[C@]3(C)C4=CC=C5C(=CC(=O)C(O)=C5C)[C@]4(C)CC[C@@]3(C)[C@@H]2C1` 1300

Please answer likewise for `CCCNC(=O)[C@]1(C)CC[C@]2(C)CC[C@]3(C)C4=CC=C5C(=CC(=O)C(O)=C5C)[C@]4(C)CC[C@@]3(C)[C@@H]2C1` 1100

CC1=C(O)C(=O)C=C2C1=CC=C1[C@@]2(C)CC[C@@]2(C)[C@@H]3C[C@](C)(C(=O)O)CC[C@]3(C)CC[C@]12C [CELASTROL] , same question. 100

Input `CC1=C(O)C(=O)C=C2C1=CC=C1[C@@]2(C)CC[C@@]2(C)[C@@H]3C[C@](C)(C(=O)OCCC(C)C)CC[C@]3(C)CC[C@]12C` 1500

What do you get for `COCCCOC(=O)[C@]1(C)CC[C@]2(C)CC[C@]3(C)C4=CC=C5C(=CC(=O)C(O)=C5C)[C@]4(C)CC[C@@]3(C)[C@@H]2C1` ? 1700

How about `CC1=C(O)C(=O)C=C2C1=CC=C1[C@@]2(C)CC[C@@]2(C)[C@@H]3C[C@](C)(C(=O)NCc4ccccc4)CC[C@]3(C)CC[C@]12C` ? 800

* * *

# procedure-summary: Antiproliferative activity against Con A-induced BALB/c mouse T cell after 48 hrs by CCK8 assay
# Assay type: functional, tissue-based, T cell line
endpoint-name: IC50 (nM)
Return type: number; implicit unit nM.

Example cases with answers are listed next.
CCCNC(=O)[C@]1(C)CC[C@]2(C)CC[C@]3(C)C4=CC=C5C(=CC(=O)C(O)=C5C)[C@]4(C)CC[C@@]3(C)[C@@H]2C1 | 64
CCNC(=O)[C@]1(C)CC[C@]2(C)CC[C@]3(C)C4=CC=C5C(=CC(=O)C(O)=C5C)[C@]4(C)CC[C@@]3(C)[C@@H]2C1 | 31
CC1=C(O)C(=O)C=C2C1=CC=C1[C@@]2(C)CC[C@@]2(C)[C@@H]3C[C@](C)(C(=O)OCc4ccccc4)CC[C@]3(C)CC[C@]12C | 1060
CC1=C(O)C(=O)C=C2C1=CC=C1[C@@]2(C)CC[C@@]2(C)[C@@H]3C[C@](C)(C(=O)OCc4ccccc4C)CC[C@]3(C)CC[C@]12C | 1040
CCCCNC(=O)[C@]1(C)CC[C@]2(C)CC[C@]3(C)C4=CC=C5C(=CC(=O)C(O)=C5C)[C@]4(C)CC[C@@]3(C)[C@@H]2C1 | 63

Reported IC50, compound `CC1=C(O)C(=O)C=C2C1=CC=C1[C@@]2(C)CC[C@@]2(C)[C@@H]3C[C@](C)(C(=O)NC(C)C)CC[C@]3(C)CC[C@]12C` : ____ 83

And what about the compound `C#CCNC(=O)[C@]1(C)CC[C@]2(C)CC[C@]3(C)C4=CC=C5C(=CC(=O)C(O)=C5C)[C@]4(C)CC[C@@]3(C)[C@@H]2C1` ? 112

What do you have for `CCCCOC(=O)[C@]1(C)CC[C@]2(C)CC[C@]3(C)C4=CC=C5C(=CC(=O)C(O)=C5C)[C@]4(C)CC[C@@]3(C)[C@@H]2C1` ? 739

Also `CC1=C(O)C(=O)C=C2C1=CC=C1[C@@]2(C)CC[C@@]2(C)[C@@H]3C[C@](C)(C(=O)NCc4ccccc4C)CC[C@]3(C)CC[C@]12C` ? 312

And what about the compound `CC1=C(O)C(=O)C=C2C1=CC=C1[C@@]2(C)CC[C@@]2(C)[C@@H]3C[C@](C)(C(=O)NCc4cccc(C)c4)CC[C@]3(C)CC[C@]12C` ? 294

Same question for `C#CCOC(=O)[C@]1(C)CC[C@]2(C)CC[C@]3(C)C4=CC=C5C(=CC(=O)C(O)=C5C)[C@]4(C)CC[C@@]3(C)[C@@H]2C1` please. 1120

Also `COC(=O)[C@H](Cc1ccc(O)cc1)NC(=O)[C@]1(C)CC[C@]2(C)CC[C@]3(C)C4=CC=C5C(=CC(=O)C(O)=C5C)[C@]4(C)CC[C@@]3(C)[C@@H]2C1` , if possible. 205

Now consider COC(=O)[C@]1(C)CC[C@]2(C)CC[C@]3(C)C4=CC=C5C(=CC(=O)C(O)=C5C)[C@]4(C)CC[C@@]3(C)[C@@H]2C1 [PRISTIMERIN] . 1200

Can you check CC1=C(O)C(=O)C=C2C1=CC=C1[C@@]2(C)CC[C@@]2(C)[C@@H]3C[C@](C)(C(=O)O)CC[C@]3(C)CC[C@]12C [CELASTROL] next? 83

Similarly, `CCOC(=O)[C@]1(C)CC[C@]2(C)CC[C@]3(C)C4=CC=C5C(=CC(=O)C(O)=C5C)[C@]4(C)CC[C@@]3(C)[C@@H]2C1` ? 820

Same thing, different compound: `CC1=C(O)C(=O)C=C2C1=CC=C1[C@@]2(C)CC[C@@]2(C)[C@@H]3C[C@](C)(C(=O)OCC4CCCCC4)CC[C@]3(C)CC[C@]12C` 1260

Now try `CNC(=O)[C@]1(C)CC[C@]2(C)CC[C@]3(C)C4=CC=C5C(=CC(=O)C(O)=C5C)[C@]4(C)CC[C@@]3(C)[C@@H]2C1` . 25
